The entries below come with measured Ratio IC50 values attached.
organism: Homo sapiens; test: Selectivity ratio of IC50 for His tagged recombinant BRD4 bromodomain 1 (unknown origin) to IC50 for His tagged recombinant CBP (unknown origin)

Fill in the blank: the reported Ratio IC50 of CNC(=O)c1cnn2ccc(N3CCCc4cc(-c5cnn(C)c5)c(C(F)F)cc43)nc12 is ____. > 14

Fill in the blank: the reported Ratio IC50 of CNC(=O)Nc1cc(OC)cc(NC(=O)NS(=O)(=O)c2cc(C)c(CCOC)s2)n1 is ____. > 74

Fill in the blank: the reported Ratio IC50 of CC(=O)N1CCCc2cc(N3CCCc4cc(-c5cnn(C)c5)c(C(F)F)cc43)ccc21 is ____. > 15
